experiment: chemical genetic growth profiling, strain panel (AID 1159580);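 further: tested at 20 µM; growth read once vehicle control cultures reached saturation at 30 °C; lower values mean less growth of the strain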; conditions: S. cerevisiae deletion strains, growth OD, locus YDL101C, strain DUN1
About 2,000 (36%) of roughly 5,500 compounds were called active. About 18% were inconclusive and are not listed. No stated cut-off is given here; in the data, active means normalized growth mostly below about 0.91 (no sharp cut-off); inconclusive means no clear call, values can overlap the other calls; inactive means mostly above about 0.92. The list shows a part of the results.
Classes used: active, inactive

molecule	category label
O=C(NCc1ccco1)c1ccc(Oc2cc(Cl)cc(Cl)c2)o1	inactive
CC(C)(C)CC(C)(C)c1ccc(OCCOCC[N+](C)(C)Cc2ccccc2)cc1	inactive
COc1ccccc1C1CCN(Cc2ccc3ccccc3c2)CC1	inactive
CCCCCCCc1c(O)c2ccccc2[nH]c1=O	inactive
CC(=O)OCC(CCn1cnc2cnc(N)nc21)COC(C)=O	inactive
CN1Cc2c(ccc3c2OCO3)C2C(O)Cc3cc4c(cc3C21)OCO4 (centres undefined)	inactive
C=C(C)/C=C1/C=CC(=O)C(C)=C1	active
N=c1nc(N2CCCCC2)cc(N)n1O	inactive
CC1(C)S[C@@H]2[C@H](NC(=O)[C@H](NC(=O)N3CCNC3=O)c3ccccc3)C(=O)N2C1C(=O)O (some centres undefined)	inactive
CN1C2CC3C[C@H]1C(O3)C2O (some centres undefined)	inactive
C/C(=N/NC(N)=S)c1ccccn1	inactive
O=c1[nH]c2cccnc2[nH]c1=O	inactive
CCOC(=O)COc1ccc2c(c1)OC(C)(C)CC2=O	inactive
N#Cc1cnn(-c2ccccc2)c1-n1cccc1	inactive
CCC1(c2ccc(N)cc2)CCC(=O)NC1=O (centres undefined)	inactive
S=C(Nc1cc(-c2cccs2)[nH]n1)Nc1ccccc1Cl	inactive
CCCCCCCCCCCCC[N+](C)(C)Cc1ccccc1	active
CCC1(c2ccccc2)C(=O)NCNC1=O	inactive
CC(C)=CCc1c(O)cc2oc(C)cc(=O)c2c1O	inactive
CC(C)=CCc1c(O)cc(C)oc1=O	inactive
C=CC1=C(C(=O)O)N2C(=O)[C@@H](NC(=O)/C(=N/O)c3csc(N)n3)[C@H]2SC1	inactive
O=C(O)c1cnn(-c2ccccc2)c1C(F)(F)F	inactive
CC1(C)C2CC[C@]3(C)C(C(=O)C=C4[C@H]5C[C@@](C)(C(=O)O)CC[C@]5(C)CC[C@]43C)[C@@]2(C)CC[C@@H]1O (some centres undefined)	inactive
OCCN(CCO)c1nc(N2CCCCC2)c2nc(N(CCO)CCO)nc(N3CCCCC3)c2n1	inactive

---

assay: chemical genetic growth profiling, strain panel (AID 1159580);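 further: tested at 20 µM; growth read once vehicle control cultures reached saturation at 30 °C; lower values mean less growth of the strain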; conditions: S. cerevisiae deletion strains, growth OD, strain wtn01
The whole screen tested about 5,500 compounds, of which about 2,000 (36%) were called active. Another 18% or so got no clear call; they are omitted. No stated cut-off is given here; in the data, active means normalized growth mostly below about 0.91 (no sharp cut-off); inconclusive means no clear call, values can overlap the other calls; inactive means mostly above about 0.92. This is one part of the list.
Classes used: active, inactive

compound	category label
CCC1(c2ccccc2)C(=O)NCNC1=O	inactive
COc1c(CC=C(C)C)c2c(c3oc(=O)c(-c4ccc(OC(C)=O)cc4)c(OC(C)=O)c13)C=CC(C)(C)O2	inactive
c1ccc(CN(CC2=NCCN2)c2ccccc2)cc1	inactive
C=C(C)/C=C1/C=CC(=O)C(C)=C1	active
O=c1ccc2ccccc2o1	inactive
O=c1ccc2cc(O)c(O)cc2o1	inactive
COc1ccc2c(c1)[C@@]1(C)CCC(=O)C[C@H]1CC2	inactive
C[N+](C)(C)CC(=O)[O-]	inactive
COc1ccc(-c2coc3c(O)c(OC)ccc3c2=O)cc1	active
CNC1(C)C2CCC(C2)C1(C)C (stereo not drawn)	inactive
Oc1c(Cl)c(Cl)c(Cl)c(Cl)c1Cl	active
C=C1CC[C@H](O)C/C1=C/C=C1\CCC[C@]2(C)C([C@H](C)/C=C/[C@H](C)C(C)C)CC[C@@H]12 (stereo partly drawn)	inactive
COc1ccc(-c2coc3c(OC)c(OC)ccc3c2=O)cc1	inactive
NC(N)=NOCC[C@H](N)C(=O)O	inactive
CC(=O)O[C@H]1C(=O)[C@@]2(C)C([C@H](OC(=O)c3ccccc3)[C@]3(O)C[C@H](OC(=O)[C@H](O)[C@@H](NC(=O)c4ccccc4)c4ccccc4)C(C)=C1C3(C)C)[C@]1(OC(C)=O)CO[C@@H]1C[C@@H]2O (stereo partly drawn)	inactive
CCCCCC(C)N (stereo not drawn)	inactive
Cc1ccc(C(=O)C(C)CN2CCCCC2)cc1 (stereo not drawn)	inactive
COc1ccc(-c2coc3c(OC)c(OC)cc(OC)c3c2=O)cc1	inactive
CCCCOc1ccc(OCCCN2CCOCC2)cc1	active
COc1ccc(-c2coc3c(OC)c(OC)cc(O)c3c2=O)cc1	inactive
CC(=C(CCOP(=O)(O)O)SC(=O)c1ccccc1)N(C=O)Cc1cnc(C)nc1N	inactive
COc1c2c(c(CC=C(C)C)c3oc(=O)c(-c4ccc(O)cc4)c(O)c13)OC(C)(C)C=C2	active
CO[C@H]1C[C@H](O[C@H]2[C@H](C)[C@@H](OC3O[C@H](C)C[C@H](N(C)C)[C@H]3O)[C@@H](C)C[C@]3(CO3)C(=O)[C@H](C)[C@@H](O)[C@@H](C)[C@@H](C)OC(=O)[C@@H]2C)O[C@@H](C)[C@@H]1O (stereo partly drawn)	inactive
